Exercise: for every item that follows, state its recorded inhibition.
target: Induced myeloid leukemia cell differentiation protein Mcl-1 (Homo sapiens) (UniProt Q07820); assay: MCL1-BIM peptide interaction disruptors – biochemical, fluorescence polarization, primary screen (AID 2057); conditions: GST-MCL1 / FITC-Bim-BH3 fluorescence polarization; at 10.9 µM; stronger effect = higher value;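 also: 0% = DMSO wells and 100% = unlabeled Bim-BH3 peptide control; higher means more loss of mP so more displacement of Bim peptide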
Sequence (Q07820 whole entry, looked up): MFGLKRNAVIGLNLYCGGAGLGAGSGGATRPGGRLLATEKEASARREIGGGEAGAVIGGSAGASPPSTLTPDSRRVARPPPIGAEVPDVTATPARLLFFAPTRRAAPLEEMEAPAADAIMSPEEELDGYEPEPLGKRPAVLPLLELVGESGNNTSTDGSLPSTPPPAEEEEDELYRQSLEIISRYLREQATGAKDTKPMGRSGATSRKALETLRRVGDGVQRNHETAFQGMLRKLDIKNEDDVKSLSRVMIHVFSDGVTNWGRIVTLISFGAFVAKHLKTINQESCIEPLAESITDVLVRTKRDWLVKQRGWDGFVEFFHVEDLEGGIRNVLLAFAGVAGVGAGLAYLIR
In all, about 320,000 compounds went through this assay and about 2,100 (0.66%) were called active. The sample holds actives, similar compounds and a random draw of the others, so the mix is not that of the screen.
Give bare numbers, in %.

Use these answered entries as a reference point.
CCCCn1c(N)c(N(CC(C)C)C(=O)c2ccc(-n3c(C)ccc3C)cc2)c(=O)[nH]c1=O = -0.69
CCOc1ccc(N(CC(=O)NCC2CCCO2)S(=O)(=O)c2ccc(C)cc2)cc1 (configuration not stated) = -3.41
Cc1ccc(C(=O)NC(=S)Nc2ccc(N3CCOCC3)cc2)cc1 = 46.3
CCOC(=O)C(CC)/C(C)=N\NC(=O)c1cccc(C)c1 (configuration not stated) = -4.82

Lab note: each compound below needs its inhibition filled in.
1. CCOC(=O)c1ccc(NC(=O)Cn2cnc3cc(C)c(C)cc32)cc1
2. CC1CCN(C(=O)c2ccc(S(=O)(=O)Cc3cc(F)ccc3F)c([N+](=O)[O-])c2)CC1
3. CC[C@]1(O)C[C@@H]2CN(CCc3c([nH]c4ccccc34)[C@@](C(=O)OC)(c3cc4c(cc3OC)N(C)[C@H]3[C@@](O)(C(=O)OC)[C@H](OC(C)=O)[C@]5(CC)C=CCN6CC[C@]43[C@@H]65)C2)C1
4. CC[C@]1(O)CC2CN(CCc3c([nH]c4ccccc34)[C@@](C(=O)OC)(c3cc4c(cc3OC)N(C=O)[C@H]3[C@@](O)(C(=O)OC)[C@H](OC(C)=O)[C@]5(CC)C=CCN6CC[C@]43[C@@H]65)C2)C1 (some centres not stated)
5. CCOc1ncccc1C(=O)N(C)CC(=O)Nc1ccc(F)cc1
6. O=C(O)c1ccc(S(=O)(=O)N2CCOCC2)o1
7. CC(=O)N(CC(O)CO)c1c(I)c(C(=O)NCC(O)CO)c(I)c(C(=O)NCC(O)CO)c1I (configuration not stated)
8. COc1ccc(NC(=O)c2cc(-c3ccc(C)o3)nc3ccccc23)cc1

Result string:
[5.35, 6.72, 119, 20.2, -10.5, -0.62, -0.91, 22.5]

* * *

target: Induced myeloid leukemia cell differentiation protein Mcl-1 (Homo sapiens) (UniProt Q07820); assay: MCL1-BIM peptide interaction disruptors – biochemical, fluorescence polarization, primary screen (AID 2057); conditions: GST-MCL1 / FITC-Bim-BH3 fluorescence polarization; at 10.9 µM;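 also: 0% = DMSO wells and 100% = unlabeled Bim-BH3 peptide control; higher means more loss of mP so more displacement of Bim peptide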
Among all 320,000 compounds or so, about 2,100 (0.66%) were called active.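 The calls were made as follows: active = inhibition above the mean inhibition of all tested compounds plus 3 SD, set per campaign (cut at about 40% in these data); inactive = the rest.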 Shown is part of a subset that was picked to be rich in actives.
Use one of these outcomes when replying: active, inactive

Consider the worked cases shown below.
CCc1c(-c2ccccc2)nc(N)c(C#N)c1-c1cccs1 = inactive
Cn1c(-c2ccc(C(F)(F)F)cc2)cc2onc(-c3ccccc3)c2c1=O = inactive
COc1ccccc1C(=O)N/C(=C/c1ccco1)C(=O)Nc1ccc(C(=O)O)cc1 = inactive
CC(NC(=O)CSc1nc2c(cc1C#N)CN(C)CC2)c1ccccc1 (centres undefined) = active
Cc1cccn2c(=O)c3cc(C(=O)NCC4CCCO4)c(=N)n(Cc4ccc(F)cc4)c3nc12 (centres undefined) = inactive

Query string: Check the results log: what was the call for COC(=O)c1ccc2c(c1)S(=O)(=O)NC(=NCCCN1CCOCC1)S2 ?
Result string: inactive

Query string: Record request — test call for COc1ccc(CCN2C(=O)N(c3ccc(OC)cc3)C(=O)C2CC(=O)Nc2ccc(OC)cc2)cc1 (centres undefined)
Result string: inactive
